Target under test: maltase prepared from porcine intestinal mucosa
Assay name: maltase inhibitory activity, maltose as substrate
Format: biochemical
Particulars: substrate 0.05 M maltose, read-out: IC50 (M), concentration of 50% inhibition
Reported IC50 values for the following compounds.
// units = M; emit number, no label

[[record]]
compound = "N[C@H]1C[C@](O)(CO)C(O)C(O)C1O (some centres unmarked) [epivaliolamine]"
metric = "IC50"
numeric_readout = 0.00014


Let us examine a further case.
Task item: Supply reported IC50 belonging to this compound: N[C@H]1C[C@](O)(CO)[C@@H](O)[C@H](O)[C@H]1O
Reply: 2.2e-06

###

Target under test: saccharase prepared from porcine intestinal mucosa (Sus scrofa, UniProt P56729)
Construct: sucrase is the C-terminal subunit cleaved from the SI precursor, paired with isomaltase
Sequence (P56729 with tags, fused parts or gaps): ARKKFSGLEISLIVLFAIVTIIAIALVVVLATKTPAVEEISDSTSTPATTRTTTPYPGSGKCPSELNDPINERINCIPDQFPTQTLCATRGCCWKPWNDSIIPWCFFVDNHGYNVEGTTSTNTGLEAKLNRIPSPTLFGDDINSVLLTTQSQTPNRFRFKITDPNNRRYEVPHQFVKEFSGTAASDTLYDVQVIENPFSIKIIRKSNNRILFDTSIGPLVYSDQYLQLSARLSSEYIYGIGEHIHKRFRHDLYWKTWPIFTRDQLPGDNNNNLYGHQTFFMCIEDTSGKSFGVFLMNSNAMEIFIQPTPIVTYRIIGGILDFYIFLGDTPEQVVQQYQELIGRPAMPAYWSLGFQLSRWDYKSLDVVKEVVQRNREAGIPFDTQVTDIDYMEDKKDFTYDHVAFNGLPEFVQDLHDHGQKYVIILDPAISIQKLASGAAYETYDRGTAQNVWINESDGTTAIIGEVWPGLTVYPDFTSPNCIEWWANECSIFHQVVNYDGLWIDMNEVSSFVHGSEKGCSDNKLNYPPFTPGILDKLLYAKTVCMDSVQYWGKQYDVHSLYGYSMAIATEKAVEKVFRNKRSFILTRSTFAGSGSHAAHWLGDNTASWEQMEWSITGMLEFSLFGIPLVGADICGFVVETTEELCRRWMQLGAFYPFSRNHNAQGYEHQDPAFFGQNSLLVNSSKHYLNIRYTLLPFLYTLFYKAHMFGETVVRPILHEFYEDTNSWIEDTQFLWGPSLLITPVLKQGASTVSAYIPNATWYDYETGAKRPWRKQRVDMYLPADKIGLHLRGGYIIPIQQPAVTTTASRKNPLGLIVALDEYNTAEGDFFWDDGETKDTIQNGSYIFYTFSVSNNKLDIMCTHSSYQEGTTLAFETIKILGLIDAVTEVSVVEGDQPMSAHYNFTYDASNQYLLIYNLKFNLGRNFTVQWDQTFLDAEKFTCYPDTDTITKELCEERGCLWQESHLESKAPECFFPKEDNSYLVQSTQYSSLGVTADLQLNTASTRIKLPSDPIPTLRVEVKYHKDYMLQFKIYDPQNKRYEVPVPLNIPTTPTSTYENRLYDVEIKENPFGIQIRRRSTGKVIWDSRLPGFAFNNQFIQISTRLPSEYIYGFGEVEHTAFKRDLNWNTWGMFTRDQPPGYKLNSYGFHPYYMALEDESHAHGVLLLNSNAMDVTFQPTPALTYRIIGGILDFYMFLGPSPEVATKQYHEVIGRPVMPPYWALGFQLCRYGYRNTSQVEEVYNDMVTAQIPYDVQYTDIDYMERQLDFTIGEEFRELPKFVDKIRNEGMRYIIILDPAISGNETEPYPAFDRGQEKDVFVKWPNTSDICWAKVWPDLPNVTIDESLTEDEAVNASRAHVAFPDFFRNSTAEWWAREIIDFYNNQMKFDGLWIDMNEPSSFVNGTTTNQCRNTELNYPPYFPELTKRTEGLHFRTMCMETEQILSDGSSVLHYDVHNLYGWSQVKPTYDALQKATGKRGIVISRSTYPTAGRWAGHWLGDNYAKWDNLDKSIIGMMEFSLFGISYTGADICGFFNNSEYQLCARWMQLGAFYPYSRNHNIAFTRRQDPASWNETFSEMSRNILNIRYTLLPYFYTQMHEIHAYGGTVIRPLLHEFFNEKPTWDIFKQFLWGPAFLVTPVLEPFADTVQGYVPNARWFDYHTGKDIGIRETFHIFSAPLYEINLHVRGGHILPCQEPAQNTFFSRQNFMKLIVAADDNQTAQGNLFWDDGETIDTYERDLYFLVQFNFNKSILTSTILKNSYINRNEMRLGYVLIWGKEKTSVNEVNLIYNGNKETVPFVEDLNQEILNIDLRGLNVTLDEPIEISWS
Assay name: saccharase inhibitory activity, sucrose as substrate
Format: biochemical
Particulars: substrate 0.05 M sucrose, read-out: IC50 (M), concentration of 50% inhibition
Metric: IC50
Record the result as number plus unit.

Task item: State, in one line, measured IC50 of N[C@H]1C[C@](O)(CO)[C@@H](O)[C@H](O)[C@H]1O [valiolamine]
Reply: 4.9e-08 M
